I'd appreciate it if you could supply Percent Effect values for the items below.
- assay.target: Tyrosyl-tRNA synthetase, putative (Trypanosoma cruzi (strain CL Brener))
- run.description: Trypanosoma cruzi tyrosyl tRNA synthetase (TcYRS) SOP
- Assay type: functional
- Set-up: scale not given: direction of the effect not stated beside the values
- study.conditions: 30 µM
Answers are plain numbers, in %.

For each of the compounds below, state Percent Effect.
1. CCCc1cc(C(=O)N(C)Cc2cnc3ccccc3n2)n(C)n1
2. CS(=O)(=O)N1CC[C@H]2O[C@H](C(=O)NCCc3ccncc3)CC[C@H]21
3. O=C(CCc1ccc(Cl)s1)N1CCCC(n2cncn2)C1 (centres undefined)

Ans:
[11.1, -15, -1.27]
